Target: cPLA2 (Homo sapiens)
Sequence (P47712 1-749): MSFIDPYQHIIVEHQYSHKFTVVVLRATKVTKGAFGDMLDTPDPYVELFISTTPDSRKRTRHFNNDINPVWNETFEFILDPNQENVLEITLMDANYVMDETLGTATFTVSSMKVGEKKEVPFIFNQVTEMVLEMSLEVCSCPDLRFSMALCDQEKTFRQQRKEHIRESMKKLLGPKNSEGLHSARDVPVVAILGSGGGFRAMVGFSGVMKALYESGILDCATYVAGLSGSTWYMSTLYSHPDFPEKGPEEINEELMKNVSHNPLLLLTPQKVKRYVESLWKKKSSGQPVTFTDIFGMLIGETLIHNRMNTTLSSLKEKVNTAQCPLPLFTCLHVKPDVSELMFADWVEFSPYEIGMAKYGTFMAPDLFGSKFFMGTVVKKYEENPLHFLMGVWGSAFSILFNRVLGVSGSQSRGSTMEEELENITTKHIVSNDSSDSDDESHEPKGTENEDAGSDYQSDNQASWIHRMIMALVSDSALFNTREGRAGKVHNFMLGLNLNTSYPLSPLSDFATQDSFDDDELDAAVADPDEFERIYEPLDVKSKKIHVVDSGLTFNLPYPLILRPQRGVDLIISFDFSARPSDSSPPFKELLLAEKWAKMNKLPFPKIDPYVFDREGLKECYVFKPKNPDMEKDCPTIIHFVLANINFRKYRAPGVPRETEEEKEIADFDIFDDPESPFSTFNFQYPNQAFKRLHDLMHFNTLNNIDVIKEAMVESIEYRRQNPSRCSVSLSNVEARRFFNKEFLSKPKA
measured_parameter: IC50 (µM)

See these solved cases before continuing.
1. Cc1ccn(CCS(=O)(=O)NCCc2c(CCOc3ccc(C(=O)O)cc3)c3cc(Cl)ccc3n2C(c2ccccc2)c2ccccc2)n1 | 0.8
2. O=C(O)c1ccc(OCCc2c(CCNS(=O)(=O)CSc3cc(Cl)cc(Cl)c3)n(C(c3ccccc3)c3ccccc3)c3ccc(Cl)cc23)cc1 | 0.4

1: O=C(O)c1ccc(OCCc2c(CCNS(=O)(=O)c3cc(Cl)cc(Cl)c3)n(C(c3ccccc3)c3ccccc3)c3ccc(Cl)cc23)cc1
2: O=C(O)c1ccc(CCCc2c(CCNS(=O)(=O)Cc3ccc(C(F)(F)F)cc3)n(C(c3ccccc3)c3ccccc3)c3ccc(Cl)cc23)cc1
Between the entries labeled 1 and 2 , whose measured IC50 is lower? Lab note: record the label of whichever item you select.
2

I: O=C(O)c1ccc(CCCc2c(CCNS(=O)(=O)Cc3ccncc3)n(C(c3ccccc3)c3ccccc3)c3ccc(Cl)cc23)cc1
II: Cc1cccc(Cl)c1SCS(=O)(=O)NCCc1c(CCOc2ccc(C(=O)O)cc2)c2cc(Cl)ccc2n1C(c1ccccc1)c1ccccc1
# min-compare on IC50 between I and II Answer by quoting the chosen item's label.
I
